- assay: Exposure in rat micronucleus in vivo assay
- run.parameters: female, Alderly Park (Wistar derived), 2000 mg/kg
measured.property: Cmax

## Input Look up Cmax: "CCCSc1nc(N[C@@H]2C[C@H]2c2ccc(F)c(F)c2)c2nnn([C@@H]3C[C@H](OCCO)[C@@H](O)[C@H]3O)c2n1"
## Output 45000 to 53000 ng/mL

---

- assay: Exposure in rat micronucleus in vivo assay
- run.parameters: female, Alderly Park (Wistar derived), 2000 mg/kg
measured.property: AUC

## Input Look up AUC: "CCCSc1nc(N[C@@H]2C[C@H]2c2ccc(F)c(F)c2)c2nnn([C@@H]3C[C@H](OCCO)[C@@H](O)[C@H]3O)c2n1"
## Output 1140 to 1360 µg·h/mL
